- Tested on: HOP-92 NSCLC
- PROTOCOL_TEXT: NCI tumour cell line growth inhibition, 48 h; in the data active means GI50 below about 0.43 µM; inactive means the rest
*1 amine or outer side, *2 acyl side, *3 side chain or, on linkers, in order; H or OH if unused. Where a SMILES comes first, the peptide text is derived from it. Bridges are numbered along the chain shown (N, C = ends). [ ]: non-standard residue; d: D form. The star is where a group is joined. Phe(3,5-F2) = N[C@@H](Cc1cc(F)cc(F)c1)C(=O)O; Pro(4R-Me) = C[C@H]1CN[C@H](C(=O)O)C1; aThr = C[C@H](O)[C@H](N)C(=O)O; Pip = O=C(O)[C@@H]1CCCCN1; X10 = Fc1cc(C2CC2)ccc1N*; Abu = CC[C@H](N)C(=O)O; CO = O=C([*:1])[*:2]
// one of yes (1) (active), no (0) (inactive), no free text

Request: Record request — test call for `O=C(CNc1c(Cl)cccc1Cl)Nc1ccc(-c2nc3ccccc3s2)cc1`
Result: no (0)

Request: Can you look up the reported call for `CCCCCc1c(C)[nH]c(/C=C2\N=C(c3ccc[nH]3)C=C2Oc2ccccc2)c1C` for me?
Result: yes (1)

Request: Record lookup: outcome of this test for COc1cc(C(C)c2ccc3c(ccn3C)c2)cc(OC)c1OC (stereo not drawn) ?
Result: yes (1)

Request: I'd appreciate the recorded outcome for `O=C(Nc1ccc(Oc2cccc(Cl)c2)c(Cl)c1)c1cnccn1` from this test.
Result: no (0)

Request: Hello, I am checking results. What call was entered for `N=C1S/C(=C/c2ccc(-c3ccc4c(c3)C(=O)NC4=O)o2)C(=O)N1c1ccc(Br)cc1` ?
Result: no (0)

Request: I'd appreciate the recorded outcome for `Cn1cc(C2=C(c3c4n(c5ccccc35)CCN(C(N)=S)C4)C(=O)NC2=O)c2ccccc21` from this test.
Result: no (0)

Request: Status in this test for CC[C@@H]1NC(=O)[C@@H]2CCCCN2C(=O)[C@@H]2CCCN2C(=O)[C@@H](NC(=O)[C@H](Cc2cc(F)cc(F)c2)NC(=O)Nc2ccc(C3CC3)cc2F)[C@H](C)OC(=O)[C@@H]2C[C@@H](C)CN2C1=O ({X10-CO}-[Phe(3,5-F2)][aThr]P[Pip][Abu][Pro(4R-Me)]; ester 2-C) ?
Result: yes (1)

Request: Please share the test call associated with CC(=O)OC1Oc2ccc(C)cc2-c2oc(=O)c(-c3cc4ccccc4oc3=O)cc21 (stereo not drawn) .
Result: no (0)
